system: MIA PaCa-2; settings: OFD1 knockdown: yes (Tet-on shOFD1, 100 ng/mL doxycycline)
Below is a list of entries, each paired with its recorded IC50 cell viability value.
The reply should be a number in µM, with the unit left off.

Solved entries:
INSERT INTO results (molecule, system, value_units, measured) VALUES
  ('CCC1(c2ccc(N)cc2)CCC(=O)NC1=O (stereo not drawn)', 'MIA PaCa-2', 'µM', 22.2),
  ('Cc1cccc(C)c1NC1=NCCCS1', 'MIA PaCa-2', 'µM', 14.1);

Switching to the query record.
In plain terms, Cn1c(CCCC(=O)O)nc2cc(N(CCCl)CCCl)ccc21 has a documented IC50 cell viability of 17

---

system: MIA PaCa-2; conditions: OFD1 knockdown: yes (Tet-on shOFD1, 100 ng/mL doxycycline)
Criterion: IC50 cell viability strictly under 20 µM. Met: T. Not met: F.

Observe how each entry below is paired with its result.
INSERT INTO results (compound, assigned_class) VALUES
  ('C[C@@H](O[C@H]1OCCN(Cc2n[nH]c(=O)[nH]2)[C@H]1c1ccc(F)cc1)c1cc(C(F)(F)F)cc(C(F)(F)F)c1', 'T'),
  ('Nc1nc(Cl)nc2c1ncn2[C@H]1C[C@H](O)[C@@H](CO)O1', 'F'),
  ('O=P1(N(CCCl)CCCl)NCCCO1 (stereo not given)', 'T');

Lab note: confirm whether the reported IC50 cell viability for this compound is below 20 µM, equality not counting. compound: CC(C)C[C@H](NC(=O)CNC(=O)c1cc(Cl)ccc1Cl)B(O)O F

A record lists CN(Cc1cnc2nc(N)nc(N)c2n1)c1ccc(C(=O)N[C@@H](CCC(=O)O)C(=O)O)cc1 . Is its IC50 cell viability below 20 µM? T

Determine if C#Cc1cccc(Nc2ncnc3cc(OC)c(OCCCCCCC(=O)NO)cc23)c1 shows IC50 cell viability strictly lower than 20 µM. T

Here's an entry: Cc1ccc(-c2cc(C(F)(F)F)nn2-c2ccc(S(N)(=O)=O)cc2)cc1 . Is its IC50 cell viability below 20 µM? F

Hi there! Is IC50 cell viability for O=P1(NCCCl)OCCCN1CCCl (stereo not given) below 20 µM, do you know? F

Threshold test, IC50 cell viability < 20 µM: OC(CNCC(O)C1CCc2cc(F)ccc2O1)C1CCc2cc(F)ccc2O1 (stereo not given) F

Decide: IC50 cell viability of CC(C)(C)Cn1c(N)nc2ccc(-c3[nH]c(C(C)(C)C)nc3-c3ccc(F)cc3)nc21 strictly below 20 µM? T

---

test system: MIA PaCa-2; conditions: OFD1 knockdown: yes (Tet-on shOFD1, 100 ng/mL doxycycline)
With a cut-off of 20 µM, any IC50 cell viability strictly below it is called Satisfied; any IC50 cell viability meeting it or above is called Not satisfied.

Field: example entries. Status: answers known.
INSERT INTO measurements (compound, system, assigned_class) VALUES
  ('COc1cc(Nc2nc3ccccc3nc2NS(=O)(=O)c2ccc(NC(=O)c3ccc(C)c(OC)c3)cc2)cc(OC)c1', 'MIA PaCa-2', 'Not satisfied'),
  ('COc1nc(C)cnc1NS(=O)(=O)c1cccnc1-c1ccc(-c2nnco2)cc1', 'MIA PaCa-2', 'Not satisfied'),
  ('CC1(COc2ccc3c(c2)ncn3-c2ccc3cccc(N4CCC(N)CC4)c3n2)COC1', 'MIA PaCa-2', 'Satisfied'),
  ('CN1CCN(c2ccc3nc(-c4c(N)c5c(F)cccc5[nH]c4=O)[nH]c3c2)CC1', 'MIA PaCa-2', 'Satisfied'),
  ('C#Cc1cccc(Nc2ncnc3cc(OCCOC)c(OCCOC)cc23)c1', 'MIA PaCa-2', 'Not satisfied'),
  ('O=C(c1cc(Cc2n[nH]c(=O)c3ccccc23)ccc1F)N1CCN(C(=O)C2CC2)CC1', 'MIA PaCa-2', 'Not satisfied');

Is the reported IC50 cell viability for Nc1nc(F)nc2c1ncn2[C@@H]1O[C@H](COP(=O)(O)O)[C@@H](O)[C@@H]1O strictly below 20 µM? Satisfied

---

test system: MIA PaCa-2; conditions: OFD1 knockdown: yes (Tet-on shOFD1, 100 ng/mL doxycycline)
parameter-measured: IC50 cell viability (µM)
Give your result in µM as a bare value.

INSERT INTO assay_data (compound, measured) VALUES
  ('C[C@@H]1C[C@H]2[C@@H]3CCC4=CC(=O)C=C[C@]4(C)[C@@]3(F)[C@@H](O)C[C@]2(C)[C@@]1(O)C(=O)CO', 7.75),
  ('Clc1ccc(Nc2nnc(Cc3ccncc3)c3ccccc23)cc1', 24.3),
  ('CCN(CC)C(=S)SSC(=S)N(CC)CC', 49.8);

Lab note: measured IC50 cell viability of COc1nc(N)nc2c1ncn2[C@@H]1O[C@H](CO)[C@@H](O)[C@@H]1O was 1.5

IC50 cell viability recorded for this compound, COc1ncc(-c2ccc3nccc(-c4ccnnc4)c3c2)cc1NS(=O)(=O)c1ccc(F)cc1F , is 8.74

IC50 cell viability recorded for this compound, O=S(=O)(O)CCS , is 18.3

Kindly note the recorded IC50 cell viability for N#Cc1ccc(C(c2ccc(C#N)cc2)n2cncn2)cc1 , which is 12.4

The compound CS(=O)(=O)c1ccc(C(=O)Nc2ccc(Cl)c(-c3ccccn3)c2)c(Cl)c1 showed IC50 cell viability equal to 69

The reported value for CC(=O)OCC(=O)[C@@]1(O)[C@H](C)C[C@H]2[C@@H]3CCC4=CC(=O)C=C[C@]4(C)[C@@]3(F)[C@@H](O)C[C@@]21C in terms of IC50 cell viability is 49.6

The reported IC50 cell viability of the compound NC(=O)C1CCCc2c1[nH]c1ccc(Cl)cc21 (stereo not drawn) was 65

Field IC50 cell viability (entry CO[C@H]1C[C@@H]2CC[C@@H](C)[C@@](O)(O2)C(=O)C(=O)N2CCCC[C@H]2C(=O)O[C@H]([C@H](C)C[C@@H]2CC[C@@H](OC(=O)C(C)(CO)CO)[C@H](OC)C2)CC(=O)[C@H](C)/C=C(\C)[C@@H](O)[C@@H](OC)C(=O)[C@H](C)C[C@H](C)/C=C/C=C/C=C/1C ) reads 24

According to the records, this compound Cc1ccc([C@@H]2O[C@H](CO)[C@@H](O)[C@H](O)[C@H]2O)cc1Cc1ccc(-c2ccc(F)cc2)s1 displays IC50 cell viability of 21.6

Just so you know, measured IC50 cell viability for Cn1cc(C2=C(c3cn(C4CCN(Cc5ccccn5)CC4)c4ccccc34)C(=O)NC2=O)c2ccccc21 came out at 12.5

---

system: MIA PaCa-2; settings: OFD1 knockdown: yes (Tet-on shOFD1, 100 ng/mL doxycycline)
parameter-measured: IC50 cell viability (µM)
Respond with the bare value in µM.

INSERT INTO results (compound, value_units, measured) VALUES
  ('Cn1cc(CNCC2CCN(c3ncc(C(=O)NO)cn3)CC2)c2ccccc21 [S1096]', 'µM', 0.39);

For this compound ( CC(O)(CS(=O)(=O)c1ccc(F)cc1)C(=O)Nc1ccc(C#N)c(C(F)(F)F)c1 (stereo not drawn) [S1190] ), measured IC50 cell viability is 45.6

Entry C=C1C[C@@H]2[C@H](CC[C@]3(C)C(=O)CC[C@@H]23)[C@@]2(C)C=CC(=O)C=C12 [S1196] , IC50 cell viability reported as 50.2

---

Listed here: items and their measured IC50 cell viability.
tested on: MIA PaCa-2; settings: OFD1 knockdown: no (no doxycycline)
Answer in µM, number only, no unit symbol.

// worked examples, IC50 cell viability included
INSERT INTO measurements (compound, value_units, measured) VALUES
  ('COc1ccccc1OCC(O)CN1CCN(CC(=O)Nc2c(C)cccc2C)CC1 (configuration not stated) [S1799]', 'µM', 20.2),
  ('CN(C)c1nc(N(C)C)nc(N(C)C)n1 [S1278]', 'µM', 2.56),
  ('CC[C@@]1(O)C(=O)OCc2c1cc1n(c2=O)Cc2cc3c(CN(C)C)c(O)ccc3nc2-1 [S1231]', 'µM', 54.5),
  ('CN(C)/N=N/c1[nH]cnc1C(N)=O [S1221]', 'µM', 52.8),
  ('C[C@@H](Oc1cc(-c2cnn(C3CCNCC3)c2)cnc1N)c1c(Cl)ccc(F)c1Cl [S1068]', 'µM', 1.73);

For COCC[n+]1c2c(n(Cc3cnccn3)c1C)C(=O)c1ccccc1C2=O [S1130] the compound record lists IC50 cell viability as 0.82

For reference, reported IC50 cell viability for COc1cc(Nc2c(C#N)cnc3cc(OCCCN4CCN(C)CC4)c(OC)cc23)c(Cl)cc1Cl [S1014] stands at 6.31

Entry COc1ncc(-c2ccc3nccc(-c4ccnnc4)c3c2)cc1NS(=O)(=O)c1ccc(F)cc1F [S2658] ; IC50 cell viability = 8.98

Reference source for all entries: the supplement of paper PMC12325586
